Response key: 1 means logP >= 0.3; 0 means logP < 0.3.

Input Smiles: NNC(=O)c1ccc(I)cc1
Cat: 1
--
Input Smiles: NNC(=O)c1ccccc1Br
Cat: 0
--
Input Smiles: NNC(=O)c1cccc([N+](=O)[O-])c1
Cat: 0
--
Input Smiles: COc1cccc(C(=O)NN)c1
Cat: 1
--
Input Smiles: NNC(=O)c1cccc(I)c1
Cat: 1
--
Input Smiles: NNC(=O)c1ccc(Br)cc1
Cat: 1
--
Input Smiles: NNC(=O)c1ccc(N)cc1
Cat: 0
--
Input Smiles: Cc1ccc(C(=O)NN)cc1
Cat: 1
--
Input Smiles: NNC(=O)c1ccc(Cl)cc1
Cat: 1
--
Input Smiles: NNC(=O)c1cccc(Br)c1
Cat: 1
--
Input Smiles: NNC(=O)c1cccc(O)c1
Cat: 0
--
Input Smiles: NNC(=O)c1ccc(O)cc1
Cat: 0
--
Input Smiles: NNC(=O)c1ccccc1O
Cat: 1
--
Input Smiles: NNC(=O)c1ccccc1Cl
Cat: 0
--
Input Smiles: NNC(=O)c1ccccc1[N+](=O)[O-]
Cat: 0
--
Input Smiles: NNC(=O)c1cccc(Cl)c1
Cat: 1
--
Input Smiles: NNC(=O)c1ccccc1I
Cat: 1
--
Input Smiles: Cc1ccccc1C(=O)NN
Cat: 0
--
Input Smiles: COc1ccc(C(=O)NN)cc1
Cat: 0
--
Input Smiles: Cc1cccc(C(=O)NN)c1
Cat: 1
--
Input Smiles: NNC(=O)c1ccccc1N
Cat: 0
--
Input Smiles: NNC(=O)c1cccc(N)c1
Cat: 0
--
Input Smiles: COc1ccccc1C(=O)NN
Cat: 0
--
Input Smiles: NNC(=O)c1ccc([N+](=O)[O-])cc1
Cat: 1

Just for reference, the SangsterLogP compilation is where these values come from.
